biological target: T1, recombinant human PD-1 Fc chimera (human, UniProt Q15116 25-167); experiment: HTRF inhibition; strep-tagged PD-L1 vs PD-1-Fc
T1 construct: Bought protein; also called human PD-1-huFc; huPD-1-Fc; not shown: human Fc
T1 sequence (Q15116 25-167 limits assumed, change not shown): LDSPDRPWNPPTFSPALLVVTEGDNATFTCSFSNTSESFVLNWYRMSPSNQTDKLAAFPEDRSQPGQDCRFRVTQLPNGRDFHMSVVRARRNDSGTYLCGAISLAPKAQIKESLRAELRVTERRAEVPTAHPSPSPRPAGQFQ

binder	IC50 (nM)
Humabody® 1.14 (VHH, human VH single domain antibody) VHH: EVQLVESGGGLVQPGRSLRLSCAASGFTFSDYTMTWMRQAPGKGLEWVSYISTGGTIKYYTDSVKGRFTISRDNAKNSLYLQMNSLRADDTAVYYCAREAPLRLGESPHDAFDIWGQGTMVTVSS	28.5
Humabody® 1.10 (VHH, human VH single domain antibody) VHH: QVQLVESGGGLVKPGGSLRLSCAASGFTFSDYTMSWMRQAPGKGLEWISYISLGGNTKYYTDSVKGRFTISRDNAKNSLYLQMNSLRADDTAVYYCAREAPLRLGESPHDAFDIWGQGTMVTVSS	54.1
Humabody® 1.4 (VHH, human VH single domain antibody) VHH: QVQLVESGGGLVKPGGSLRLSCAASGFTFSDYYMIWMRQAPGKGLEWVSYISGGGTTKYYTDSVKGRFTISRDNAKNSLYLQMNSLRADDTAVYYCAREAPLRLGETPHDAFDIWGQGTMVTVSS	3.13
Humabody® 1.7 (VHH, human VH single domain antibody) VHH: EVQLVESGGGLVKPGGSLRLSCAASGFTFSDYTMTWMRQAPGKGLEWVSYISTGGTIKYYTDSVKGRFTISRDNAKNSLYLQMNSLRADDTAVYYCAREAPLRLGESPHDAFDIWGQGTMVTVSS	4.4
Humabody® 1.11 (VHH, human VH single domain antibody) VHH: EVQLLESGGGLVKPGGSLRLSCAASGFTFSDYDMTWIRQAPGKGQEWVSYISRGGSTKYYADSVKGRFTISRDNAKNSLYLQMNSLRAEDTAVYYCAREAPLRLGETPHDAFDIWGQGTMVTVSS	5.16
